# Test system: Plasmodium berghei
# Protocol Description: Screen against P. berghei liver stage (PbLuc), transformed with Luciferase, at 10uM
# Type: functional, HepG2
# Applied Conditions: tested at 10 uM
Out of some 69,000 compounds screened, about 8,600 (12%) showed an effect of 50% or more. What follows is part of a selection rich in strong results, with near analogues and random picks from the rest.
Mark condition met for reported INHIBITION of 40% or greater; mark condition not met for anything smaller.

>  <Molecule>
CCn1c(C)nnc1CN(C)C1CCN(Cc2nnc(C3CC3)o2)C1 (stereo not given)

>  <Label Class>
condition not met

$$$$

Can Cc1cnc(N2C(=O)CSC2c2ccc(F)cc2)s1 (stereo not given) be said to have INHIBITION at or above 40%?
condition met

What would you report for CCC(CC)c1cc(CNC(=O)N2CCCC(C(=O)NC)C2)on1 (stereo not given) ?
condition met

What would you report for `COCCN1CCN(Cc2c(C)noc2C)Cc2cccnc21` ?
condition not met
